Read-out: Monokine induced gamma interferon (MIG), CXCL9 (gene 4283)
Test: BSK_SAg_MIG: BioMAP Diversity Plus: SAg Assay for Monokine induced gamma interferon (MIG) Biomarker Activity (AID 2283092)
Details: primary human HUVEC with PBMC; actives raise or lower the signal
Method: BSK_SAg is a cell-based, multiplexed-readout assay that uses umbilical vein endothelium and peripheral blood mononuclear cells, a human vascular primary cell co-culture, with measurements taken at 24 hours after chemical dosing in a 96-well plate.BSK_SAg_MIG is an assay component measured in the BSK_SAg assay. It measures MIG antibody related to regulation of gene expression using ELISA technology.Data from the assay component BSK_SAg_MIG was analyzed into 1 assay endpoint. […]
Active and inactive are the calls of the source. The calls were made as follows: active = hit-call score of the fitted dose curve at least 0.9, where 1 is the maximum; inactive = score below 0.9.
Use one of these outcomes when replying: active, inactive

Prompt: // param item: Fc1ccccc1[C@@H](F)COC1CCC(Nc2ncnc3[nH]ncc23)CC1 (stereo not given in full) ; yields the recorded call
Completion: inactive

Prompt: // param item: `O=C(CCCCCCCCc1cccnc1)N1CCC(C=C(c2ccccc2)c2ccccc2)CC1` ; yields the recorded call
Completion: active

Prompt: // param item: `CC(=O)c1ccc2c(c1)[C@H](NC(=O)c1ccc(F)cc1)[C@@H](O)C(C)(C)O2` ; yields the recorded call
Completion: inactive

Prompt: // param item: CCCCC(CC)COC(=O)CCCCCCCCC(=O)OCC(CC)CCCC (stereo not given) ; yields the recorded call
Completion: inactive

Prompt: // param item: `Cc1[nH]cnc1C[C@H]1CCc2c(C)c3ccccc3n2C1=O` ; yields the recorded call
Completion: active
